- assayName: chemical genetic growth profiling, strain panel (AID 1159580);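 further: tested at 20 µM; growth read once vehicle control cultures reached saturation at 30 °C; lower values mean less growth of the strain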
- conditionSummary: S. cerevisiae deletion strains, growth OD, locus YOR080W, strain dia2, active compounds read low
The campaign covered roughly 5,500 compounds. About 2,000 (36%) were called active. Inconclusive results (about 18%) are left out. The list shows a part of the results.
# T = normalized growth below 1 (exclusive); F = normalized growth at/above 1

Look over these answered cases.
>>> discretelabel("CCn1nc(C(=O)O)c(=O)c2cc3c(cc21)OCO3")
"F"
>>> discretelabel("OC1(c2ccc(Cl)c(C(F)(F)F)c2)CCN(CCCC(c2ccc(F)cc2)c2ccc(F)cc2)CC1")
"T"
>>> discretelabel("CCCc1nc(C)c2c(=O)[nH]c(-c3cc(S(=O)(=O)N4CCN(CC)CC4)ccc3OCC)nn12")
"T"
>>> discretelabel("COC(=O)C[C@H]1C(C)(C)[C@@H](O)[C@@H]2CC3=C4CC(O)O[C@@H](c5ccoc5)[C@]4(C)CCC3[C@@]1(C)C2=O (stereo not given in full)")
"F"

API: the following record is the query input.
Item CC1(C)S[C@@H]2C(N3C(=O)[C@@H](c4ccccc4)NC3(C)C)C(=O)N2[C@H]1C(=O)O (stereo not given in full) : normalized growth beneath 1, strictly?
F
